Data origin: patent US20250206761A1

# System: phosphorylation of ERK, KRAS G12C in NCJ-H358 cells
# MEASUREMENT PROTOCOL: pERK inhibition assay, KRAS G12C
# Assay type: cell-based, human
# EXPERIMENTAL PARAMETERS: Homo sapiens, 4 hours
MEASURED ATTRIBUTE: IC50 (nM)
Report the value in nM with no unit label.

Observe how each entry below is paired with its result.
| MOLECULE | EXPERIMENTAL SYSTEM | UNIT NAME | IC50 |
| --- | --- | --- | --- |
| CO[C@@H](C)c1ncc(N2CCN(CC(F)(F)F)CC2)cc1-c1c2c3cc(c(F)cc3n1CC(F)(F)F)-c1csc(n1)C[C@H](NC(=O)[C@H](C(C)C)N1CCCC3(CCN(C(=O)[C@H](F)Cl)CC3)C1=O)C(=O)N1CCC[C@H](N1)C(=O)OCC(C)(C)C2 (atropisomer, axis not shown; (M)) | phosphorylation of ERK, KRAS G12C in NCJ-H358 cells | nM | 3 |
| CO[C@@H](C)c1ncc(N2CCN(C)CC2)cc1-c1c2c3cc(c(F)cc3n1CC(F)(F)F)-c1csc(n1)C[C@H](NC(=O)[C@H](C(C)C)N1CC[C@]3(CCN(C(=O)[C@H](F)Cl)C3)C1=O)C(=O)N1CCC[C@H](N1)C(=O)OCC(C)(C)C2 (atropisomer, axis not shown; (M)) | phosphorylation of ERK, KRAS G12C in NCJ-H358 cells | nM | 2 |
| CCn1c(-c2cc(N3CCOCC3)cnc2[C@H](C)OC)c2c3cc(c(F)cc31)-c1csc(n1)C[C@H](NC(=O)[C@H](C(C)C)N1CCC3(CCN(C(=O)[C@H](F)Cl)CC3)C1=O)C(=O)N1CCC[C@H](N1)C(=O)OCC(C)(C)C2 (atropisomer, axis not shown; (M)) | phosphorylation of ERK, KRAS G12C in NCJ-H358 cells | nM | 6 |
| CO[C@@H](C)c1ncc(N2CCN(CC(F)(F)F)CC2)cc1-c1c2c3cc(c(F)cc3n1CC(F)(F)F)-c1csc(n1)C[C@H](NC(=O)[C@H](C(C)C)N(C)C(=O)C1(F)CCN(C(=O)[C@H](F)Cl)CC1)C(=O)N1CCC[C@H](N1)C(=O)OCC(C)(C)C2 (atropisomer, axis not shown; (M)) | phosphorylation of ERK, KRAS G12C in NCJ-H358 cells | nM | 10 |
| CO[C@@H](C)c1ncc(N2CCN(C)CC2)cc1-c1c2c3cc(c(F)cc3n1CC(F)(F)F)-c1csc(n1)C[C@H](NC(=O)[C@H](C(C)C)N1CCC[C@]3(CCN(C(=O)[C@H](F)Cl)C3)C1=O)C(=O)N1CCC[C@H](N1)C(=O)OCC(C)(C)C2 (single isomer, unassigned) | phosphorylation of ERK, KRAS G12C in NCJ-H358 cells | nM | 3 |

Query: Recorded IC50 of CCn1c(-c2cc(N3CCN(C)CC3)cnc2[C@H](C)OC)c2c3cc(c(F)cc31)-c1csc(n1)C[C@H](NC(=O)[C@H](C(C)C)N1CC[C@]3(CCN(C(=O)[C@H](F)Cl)C3)C1=O)C(=O)N1CCC[C@H](N1)C(=O)OCC(C)(C)C2 (atropisomer, axis not shown; (M)) , please.
Reply: 5

Query: Same thing, different molecule: CO[C@@H](C)c1ncc(N2CCN(CC(F)(F)F)CC2)cc1-c1c2c3cc(c(F)cc3n1CC(F)(F)F)-c1csc(n1)C[C@H](NC(=O)[C@H](C(C)C)N1CC[C@]3(CCN(C(=O)[C@H](F)Cl)C3)C1=O)C(=O)N1CCC[C@H](N1)C(=O)OCC(C)(C)C2 (atropisomer, axis not shown; (M))
Reply: 7
